The values you see were collected from the supplement of paper PMC9170038.

Recorded apparent KD of MS2 coat protein values for a group of sequences are listed next.
Tested on: MS2 coat protein
Assay details: apparent KD of MS2 coat protein; designed switch direction (-1 OFF switch, 1 ON switch): -1; higher = weaker reporter binding
Condition description: input ligand: FMN 200 uM
Respond with the bare value in µM.

Use these answered entries as a reference point.
[[record]]
sequence_input = "GGGCCGGCCGGAGGAUAUGCGGCUUGGUUGGUCGGUGGGCCGGCCGGGACAUGAGGAUCACCCAUGUAGAAGGCUGGUUGGUUC [less GC, MS2 in another position, A 14%] (Eterna round: R96, puzzle: Exclusion NG 2)"
system_tested = "MS2 coat protein"
measurement = 0.0582

[[record]]
sequence_input = "UCGCUCCGUGUAGGAUAUCGCCGUUCUAUUCGGCGAGAAGGACAUGAGGAUCACCCAUGUAUGUUAUUAUCACGUGUGGCGCGC [Design 55] (Eterna round: R96, puzzle: Exclusion NG 1)"
system_tested = "MS2 coat protein"
measurement = 0.036

[[record]]
sequence_input = "UCCUGACAUGAGGAUCACCCAUGUUAGGAUAUGACAUUUGGCGCGACAGUGUGGAGUGUUAGAAGGGAUGUGGG [-29.9, -27.2 kcal, A 24%] (Eterna round: R97, puzzle: Exclusion 1)"
system_tested = "MS2 coat protein"
measurement = 0.0183

[[record]]
sequence_input = "UCAGGUCGGUAGGAUAUCGACGGGAAAAGCCCACGAGAAGGACUGACAUGAGGAUCACCCAUGUGAGCGUAACC [EX6 B.1] (Eterna round: R97, puzzle: Exclusion 6)"
system_tested = "MS2 coat protein"
measurement = 0.0379

[[record]]
sequence_input = "UACAUGAGGAUCACCCAUGUUUUGUCGUGUAUGGUAUUUAUCUAGGAUAUCAAGUUAUUUAAUUAUGAGAAGGAGAAUAUUAAU [JMF's solution 34] (Eterna round: R96, puzzle: Exclusion NG 3)"
system_tested = "MS2 coat protein"
measurement = 0.0328


Under MS2 coat protein: apparent KD of MS2 coat protein value of GGUUGGCGAGGAUAUACAUGAGGAUCACCCAUGUGGUCCUGUGGCUAAAAAAACCUUUGUAGAAGGCGCGGGUC [salish99_ex3_r4_030] (Eterna round: R97, puzzle: Exclusion 3) ?
0.173

Under MS2 coat protein: apparent KD of MS2 coat protein value of UGCAUGUAAGGAUAUGCAUCCGCCAACGAACCGGCGGCACAGCAGAAGGUACAUGAGGAUCACCCAUGUGUCCC [Isonrian] (Eterna round: R96, puzzle: Exclusion 4) ?
0.357

Under MS2 coat protein: apparent KD of MS2 coat protein value of ACAUGAGGAUCACCCAUGUACAGGGUUUAGUUUCAUCGUUUGAAGGAUAUACACCGUUAGUUGUCGUAGAAGGUCACAGAUUGG [JR_ExcNG3_Sub009] (Eterna round: R96, puzzle: Exclusion NG 3) ?
0.153
